- target-system: P-selectin (Homo sapiens)
- Sequence (whole entry): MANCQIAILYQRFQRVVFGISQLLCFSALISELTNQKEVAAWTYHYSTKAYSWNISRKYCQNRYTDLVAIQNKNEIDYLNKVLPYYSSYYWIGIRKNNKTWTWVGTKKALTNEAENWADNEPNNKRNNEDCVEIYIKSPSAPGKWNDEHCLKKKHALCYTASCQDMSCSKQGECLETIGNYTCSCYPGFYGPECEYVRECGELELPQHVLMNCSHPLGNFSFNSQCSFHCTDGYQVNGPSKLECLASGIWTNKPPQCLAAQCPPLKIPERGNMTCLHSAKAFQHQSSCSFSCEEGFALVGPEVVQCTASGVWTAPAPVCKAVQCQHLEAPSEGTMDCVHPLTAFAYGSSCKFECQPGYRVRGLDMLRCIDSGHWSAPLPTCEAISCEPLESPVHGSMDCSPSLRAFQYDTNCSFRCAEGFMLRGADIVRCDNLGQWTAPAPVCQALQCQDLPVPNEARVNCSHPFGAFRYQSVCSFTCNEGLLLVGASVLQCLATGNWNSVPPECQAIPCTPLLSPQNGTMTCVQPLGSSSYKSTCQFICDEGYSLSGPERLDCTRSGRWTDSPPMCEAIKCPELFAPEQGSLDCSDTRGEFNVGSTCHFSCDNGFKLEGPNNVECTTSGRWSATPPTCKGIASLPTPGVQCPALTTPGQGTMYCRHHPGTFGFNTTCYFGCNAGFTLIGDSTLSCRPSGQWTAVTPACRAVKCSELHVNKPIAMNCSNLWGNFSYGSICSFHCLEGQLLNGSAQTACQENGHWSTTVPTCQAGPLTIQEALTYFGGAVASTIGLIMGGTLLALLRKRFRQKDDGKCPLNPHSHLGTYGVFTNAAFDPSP
- assay-explanation: Inhibition of sLex binding to P-selectin at 500 uM relative to control by glyco-ELISA assay
measurement-name: inhibition (%)
Express the result in % but write the number alone.

# count of solved cases: 3
* CCCCCCCCCCOc1cc(OCCCCCCCCCC)cc(OCCCCCCN(c2ccc(C(=O)O)cc2)c2ccc(C(=O)O)cc2)c1 | 81
* CCCCCCCCCCOc1cc(OCCCCCCCCCC)cc(OCCCCCC(=O)N(c2ccc(C(=O)O)cc2)c2cccc(C(=O)O)c2)c1 | 58
* CCCCCCCCCCOc1cc(OCCCCCCCCCC)cc(OCCCCCCON=C(c2ccc(Cl)cc2)c2ccc(Cl)cc2)c1 | 2

Next, consider the following molecule.
Query (molecule): `O=C(O)c1ccc(N(C(=O)CCCCCBr)c2cccc(C(=O)O)c2)cc1` ; field requested: inhibition
19

* * *

- target-system: E-selectin (Homo sapiens)
- assay-explanation: Inhibition of sLex binding to E-selectin at 100 uM relative to control by glyco-ELISA assay
measurement-name: inhibition
Just the number plus its unit, please.

# count of solved cases: 6
- CCCCCCCCCCOc1cc(OCCCCCCCCCC)cc(OCCCCCCN(c2ccc(C(=O)O)cc2)c2ccc(C(=O)O)cc2)c1: 94%
- O=C(O)c1ccc(N(C(=O)CCCCCBr)c2ccc(C(=O)O)cc2)cc1: 5%
- CCCCCCCCCCOc1cccc(OCCCCCC(=O)N(Cc2ccc(C(=O)OC)cc2)c2ccc(C(=O)OC)cc2)c1: 65%
- CCCCCCCCCCOc1cccc(OCCCCCC(=O)N(Cc2ccc(C(=O)O)cc2)c2cccc(C(=O)O)c2)c1: 42%
- CCCCCCCCCCOc1cccc(OCCCCCC(=O)N(Cc2ccc(C(=O)OC)cc2)c2cccc(C(=O)OC)c2)c1: 18%
- CCCCCCCCCCOc1cc(OCCCCCCCCCC)cc(OCCCCCCON=C(c2ccc(Cl)cc2)c2ccc(Cl)cc2)c1: 2%

Query (molecule): `CCCCCCCCCCOc1cc(OCCCCCCCCCC)cc(OCCCCCC(=O)N(Cc2ccc(C(=O)O)cc2)c2cccc(C(=O)O)c2)c1` ; field requested: inhibition
43%

The reported numbers originate from ChEMBL document CHEMBL1137388.
